System: human DGKζ (Homo sapiens (Human), UniProt Q13574)
Sequence (Q13574 other isoform, or with tags, fused parts or gaps): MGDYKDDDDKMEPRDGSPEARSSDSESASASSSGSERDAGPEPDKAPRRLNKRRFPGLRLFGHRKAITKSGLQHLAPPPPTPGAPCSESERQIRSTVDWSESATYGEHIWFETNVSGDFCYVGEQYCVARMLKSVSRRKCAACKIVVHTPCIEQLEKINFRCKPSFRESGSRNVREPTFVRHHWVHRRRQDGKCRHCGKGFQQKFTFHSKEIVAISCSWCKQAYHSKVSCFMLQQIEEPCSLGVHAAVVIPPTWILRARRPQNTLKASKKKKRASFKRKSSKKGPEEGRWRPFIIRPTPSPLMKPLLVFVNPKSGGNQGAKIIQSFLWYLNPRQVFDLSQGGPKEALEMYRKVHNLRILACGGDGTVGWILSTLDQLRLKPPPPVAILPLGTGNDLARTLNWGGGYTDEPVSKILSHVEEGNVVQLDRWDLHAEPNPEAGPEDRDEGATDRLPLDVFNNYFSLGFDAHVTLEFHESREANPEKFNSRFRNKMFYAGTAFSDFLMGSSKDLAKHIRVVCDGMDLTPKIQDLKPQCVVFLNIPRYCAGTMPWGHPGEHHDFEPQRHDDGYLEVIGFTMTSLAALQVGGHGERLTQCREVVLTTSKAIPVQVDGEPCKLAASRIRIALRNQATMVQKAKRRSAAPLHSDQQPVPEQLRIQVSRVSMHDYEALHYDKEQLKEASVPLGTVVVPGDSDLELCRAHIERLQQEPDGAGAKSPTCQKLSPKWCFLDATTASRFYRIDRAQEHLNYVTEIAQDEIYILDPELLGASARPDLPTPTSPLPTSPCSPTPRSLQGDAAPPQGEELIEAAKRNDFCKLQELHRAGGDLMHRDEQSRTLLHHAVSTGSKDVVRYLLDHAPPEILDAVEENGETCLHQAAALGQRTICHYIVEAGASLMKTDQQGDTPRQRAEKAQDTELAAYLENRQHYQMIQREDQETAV
Assay Protocol: Human DGKζ kinase activity inhibition assay (ADP-Glo)
Format: biochemical
Assay Context: in vitro human DGKζ kinase activity inhibition assay; read-out: IC50
Value Type: IC50 (nM)
Answers are plain numbers, in nM.

Sample answers from the record:
Molecule | System | Value Type | Value Units | Measured Value
CC(C(N)=O)N(c1ccc(OC(F)(F)F)c(Cl)c1)c1nc(N)c(C(=O)c2ccc(OC(F)F)cc2)s1 (racemic) | human DGKζ (Homo sapiens (Human), UniProt Q13574) | IC50 | nM | 45
CC(C(N)=O)N(c1ccc(F)cc1)c1nc(N)c(C(=O)c2ccnc(Cl)c2)s1 (racemic) | human DGKζ (Homo sapiens (Human), UniProt Q13574) | IC50 | nM | 392
CCOC(=O)COc1ccc(C(=O)c2sc(N(c3ccc(F)cc3)C(C)C(N)=O)nc2N)cc1 (single isomer, unassigned; enantiomer 2) [Example 81.2] | human DGKζ (Homo sapiens (Human), UniProt Q13574) | IC50 | nM | 10.1
CC(C(N)=O)N(c1ccc(OC(F)F)nc1)c1nc(N)c(C(=O)c2ccc(OC(F)F)nc2)s1 (racemic) | human DGKζ (Homo sapiens (Human), UniProt Q13574) | IC50 | nM | 76

State the recorded IC50 for every item in the following list.
1. CC1CCN(C(=O)COc2ccc(C(=O)c3sc(N(c4ccc(F)cc4)C(C)C(N)=O)nc3N)cc2)CC1 (racemic)
2. CC(C(N)=O)N(c1ccc(F)cc1)c1nc(N)c(C(=O)c2ccc(Cn3cccn3)cc2)s1 (racemic)
3. CC(=O)N1CCN(C(=O)COc2ccc(C(=O)c3sc(N(c4ccc(F)cc4)C(C)C(N)=O)nc3N)cc2)CC1 (racemic)
4. CC(C(N)=O)N(c1ccc(F)cc1)c1nc(N)c(C(=O)c2ccc(OCC(=O)NCC(O)CO)cc2)s1 (racemic) [Example 116]

Resp:
[97.1, 57, 658, 581]

State the recorded IC50 for every item in the following list.
1. CC(C(N)=O)N(c1ccc(OC(F)(F)F)c(Cl)c1)c1nc(N)c(C(=O)c2ccncc2)s1 (racemic)
2. CC(C(N)=O)N(c1ccc(F)cc1)c1nc(N)c(C(=O)c2ccc(OCC(=O)NCc3nc4ccccc4[nH]3)cc2)s1 (racemic)
3. CC(C(N)=O)N(c1ccc(F)c(F)c1)c1nc(N)c(C(=O)c2ccc(OC(F)F)cc2)s1 (racemic)

Resp:
252
73.5
2.76

State the recorded IC50 for every item in the following list.
1. CC(C(N)=O)N(c1ccc(F)cc1)c1nc(N)c(C(=O)c2ccccc2F)s1 (racemic)
2. CC(C(N)=O)N(c1ccc(F)cc1)c1nc(N)c(C(=O)c2ccc(NC(=O)C3CC3)cc2)s1 (racemic)
3. CC(C(N)=O)N(c1ccc(Cl)cc1)c1nc(N)c(C(=O)c2ccc(OC(F)F)cc2)s1 (single isomer, unassigned) [Example 47.2]

Resp:
618
40
1.96

====

Would you kindly list log10 of IC50 for each of these compounds?
System: human DGKζ (Homo sapiens (Human), UniProt Q13574)
Assay Protocol: Human DGKζ kinase activity inhibition assay (ADP-Glo)
Type: biochemical
Assay Context: in vitro human DGKζ kinase activity inhibition assay; read-out: IC50
Description: Human DGKζ Kinase Activity Inhibition Assay. Human diacylglycerol kinase zeta (DGKζ) inhibitory activity of compounds of the present invention was quantified employing the human DGKζ kinase activity assay as described in the following paragraphs. In essence, the enzyme activity was measured by quantification of the adenosine-di-phosphate (ADP) generated as a co-product of the enzyme reaction via the “ADP-Glo™ Kinase Assay” kit from the company Promega. […]
Recorded IC50 (log10, nM)

Sample answers from the record:
Compound | Value Type | Measured Value
CC(C(N)=O)N(c1ccc(F)c(F)c1)c1nc(N)c(C(=O)c2ccc(C(F)(F)F)nc2)s1 (racemic) [Example 53] | log10 of IC50 | 1.49
COc1ccc(C(=O)c2sc(N(c3ccc(OC(F)(F)F)nc3)C(C)C(N)=O)nc2N)cc1 (racemic) | log10 of IC50 | 2.13
COc1ccc(N(c2nc(N)c(C(=O)c3ccc(OC(F)F)cc3)s2)C(C)C(N)=O)cc1 (single isomer, unassigned) [Example 174.1] | log10 of IC50 | 1.41
CC(C(N)=O)N(c1ccc(F)cc1)c1nc(N)c(C(=O)c2ccc(C(=O)NC[C@@H](C)O)cc2)s1 (mixture of isomers) | log10 of IC50 | 2.66
CC(C(N)=O)N(c1ccc(F)cc1)c1nc(N)c(C(=O)c2ccc(OCC(=O)Nc3ccc(C(N)=O)cc3)cc2)s1 (racemic) | log10 of IC50 | 1.71

State the recorded log10 of IC50 for every item in the following list.
1. CC(C(N)=O)N(c1ccncc1)c1nc(N)c(C(=O)c2ccccc2)s1 (racemic)
2. CC(C)Oc1ccc(N(c2nc(N)c(C(=O)c3ccccc3)s2)C(C)C(N)=O)cc1 (racemic)
3. CC(C(N)=O)N(c1ccc(F)cc1)c1nc(N)c(C(=O)c2ccc(N3CCC(C)(C#N)CC3)nc2)s1 (single isomer, unassigned; enantiomer 2) [Example 285.2]
4. CC(C(N)=O)N(c1ccc(F)cc1)c1nc(N)c(C(=O)c2ccc(-n3ccnc3)cc2)s1 (racemic)
5. CC(C(N)=O)N(c1ccc(F)cc1)c1nc(N)c(C(=O)c2ccc(OCC(=O)N(C)Cc3cccnc3)cc2)s1 (racemic)
6. CC(C(N)=O)N(c1ccc(F)cc1)c1nc(N)c(C(=O)c2ccc(OC(F)F)nc2)s1 (single isomer, unassigned) [Example 162.2]

Resp:
[3.80, 2.97, 2.64, 2.21, 2.38, 3.82]

Recorded result, CC(C(N)=O)N(c1ccc(OC(F)(F)F)nc1)c1nc(N)c(C(=O)c2ccc(OC(F)F)cc2)s1 (racemic) , log10 of IC50: 1.56
